Data origin: ChEMBL document CHEMBL3046707

Target: DNA-3-methyladenine glycosylase 1 (Escherichia coli (strain K12))
Sequence (P05100 whole entry): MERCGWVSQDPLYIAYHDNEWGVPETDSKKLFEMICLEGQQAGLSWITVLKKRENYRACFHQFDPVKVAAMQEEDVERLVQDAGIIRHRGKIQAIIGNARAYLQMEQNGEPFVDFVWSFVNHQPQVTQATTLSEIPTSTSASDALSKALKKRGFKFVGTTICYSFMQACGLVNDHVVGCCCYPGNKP
Assay: Inhibition of Escherichia coli DNA-3-methyladenine glycosylase 1
Just a reminder that ties go to 0: only IC50 strictly below 5 µM counts as 1.

compound: CCn1cnc(N)c2ncnc1-2 [3-ETHYLADENINE]
answerLabel: 0

Report whether reported IC50 is lower than 5 µM (strictly) for Nc1ncn(Cc2ccccc2)c2ncnc1-2 [3-BENZYLADENINE]
1

Hello, I'm reviewing records and need to know if IC50 of Cn1cnc(N)c2ncnc1-2 [3-METHYLADENINE] is below 5 µM. Could you check?
0

IC50 strictly < 5 µM for this compound? CCCCn1cnc(N)c2ncnc1-2 [3-BUTYLADENINE]
1
